Experiment: refractive index (Na D-line) (dimensionless)
Conditions: 313.15 K; 101.33 kPa; Liquid; Standard Abbe refractometry
readout: refractive index
I only need the number, thanks.

As a guide, the following entries are already answered.
{"smilesData": "C1CCCCC1", "refractive index": 1.41513}
{"smilesData": "c1ccccc1", "refractive index": 1.48777}
{"smilesData": "CC1CCCCC1", "refractive index": 1.41272}
{"smilesData": "Cc1ccccc1", "refractive index": 1.48509}
{"smilesData": "C1CCCC1", "refractive index": 1.39456}

Now take the following compound into account.
Would you mind telling me what refractive index value was observed for CCc1ccccc1 ?
1.48538

====

speed of sound: recorded values
Settings: 313.15 K; 101 kPa; Liquid; Vibrating Tube Densimeter
Field: numeric (m/s). Do not append units.

As a guide, the following entries are already answered.
{"compound": "CC1CCCCC1 [methylcyclohexane]", "readout": "speed of sound", "reportedValue": 1149.6}
{"compound": "CCc1ccccc1 [ethylbenzene]", "readout": "speed of sound", "reportedValue": 1257.3}
{"compound": "c1ccccc1 [benzene]", "readout": "speed of sound", "reportedValue": 1230.5}
{"compound": "Cc1ccccc1 [toluene]", "readout": "speed of sound", "reportedValue": 1240.9}
{"compound": "C1CCCCC1 [cyclohexane]", "readout": "speed of sound", "reportedValue": 1181.7}

Now take the following compound into account.
Would you mind telling me what speed of sound value was observed for C1CCCC1 [cyclopentane] ?
1130

====

Conditions: 313.15 K; 101 kPa; Liquid; Vibrating tube method
readout: mass density (kg/m3)
Field: numeric (kg/m3). Do not append units.

As a guide, the following entries are already answered.
{"smilesData": "C1CCCCC1", "reportedValue": 759.6}
{"smilesData": "C1CCCC1", "reportedValue": 725}
{"smilesData": "Cc1ccccc1", "reportedValue": 848.2}
{"smilesData": "c1ccccc1", "reportedValue": 857.5}
{"smilesData": "CC1CCCCC1", "reportedValue": 752}

Now take the following molecule into account.
Would you mind telling me what mass density value was observed for CCc1ccccc1 ?
849.3

====

Test: refractive index (Na D-line) (dimensionless)
Details: 298.15 K; 101.33 kPa; Liquid; Standard Abbe refractometry
readout: refractive index
I only need the number, thanks.

{"compound": "C1CCCCC1 [cyclohexane]", "readout": "refractive index", "reportedValue": 1.42353}

Would you mind telling me what refractive index value was observed for CC1CCCCC1 [methylcyclohexane] ?
1.42053

Would you mind telling me what refractive index value was observed for c1ccccc1 [benzene] ?
1.49775

Would you mind telling me what refractive index value was observed for C1CCCC1 [cyclopentane] ?
1.40342

Would you mind telling me what refractive index value was observed for Cc1ccccc1 [toluene] ?
1.49399

Would you mind telling me what refractive index value was observed for CCc1ccccc1 [ethylbenzene] ?
1.49304

====

Conditions: 298.15 K; 101.33 kPa; Liquid; Vibrating tube method
Please use class 1 for mass density under 800 kg/m3 and class 0 for everything else, ties included.

{"smilesData": "CC1CCCCC1", "assignedLabel": "class 1"}
{"smilesData": "C1CCCC1", "assignedLabel": "class 1"}
{"smilesData": "Cc1ccccc1", "assignedLabel": "class 0"}

Given the entry c1ccccc1 , would its reported mass density be below 800 kg/m3?
class 0

Given the entry CCc1ccccc1 , would its reported mass density be below 800 kg/m3?
class 0

Given the entry C1CCCCC1 , would its reported mass density be below 800 kg/m3?
class 1
